meta.source: paper PMC9454456

# ASSAY_TEXT: in vivo
# Parameters: species or system mice
# CONDITION_SET: mouse, iv, 3.4 MBq, total radioactivity, Biodistribution, Muscle

{"MOLECULE": "CC(=O)NC(CCCCNC(=O)CN1CCN(CC(=O)O)CCN(CC(=O)O)CCN(CC(=O)O)CC1)C(=O)N1CCCC1C(=O)N(C)C(CCCNC(=N)N)C(=O)NC(CCCNC(=N)N)C(=O)N1CCCC1C(=O)NC(Cc1ccc(O)cc1)C(=O)NC(C(=O)NC(CC(C)C)C(=O)O)C(C)(C)C (stereo not shown) [^68Ga-DOTA-NT-20.3, metal not drawn]", "SCALE_UNIT": "%ID/g", "tissue uptake at 5 min": 1.93}
